compounds and their reported growth
System: SW-620 colon
Experiment description: NCI-60 one-dose screen, 48 h (100 = growth as untreated, 0 = no growth, -100 = all killed)
Test conditions: 10 µM
About 83,000 compounds went through this panel and 20% of them were active in at least one assay; those are over-represented in the sample as a whole.
Field format: number, assumed %, no unit text.

Please review the following examples before continuing.
{"Compound": "COc1ccc2c(c1)C(=O)c1c-2c(OCCN(C)C)nc2ccccc12", "growth [%]": -7.66}
{"Compound": "CCN(CC)CCCC(C)Nc1nc(-c2ccc(OC)cc2)nc2cc(Cl)ccc12 (stereo unspecified)", "growth [%]": 80.9}
{"Compound": "CCOC(=O)CCC(NC(=O)c1ccc(N)cc1)C(=O)OCC (stereo unspecified)", "growth [%]": 107}
{"Compound": "Nc1nc(N=Nc2ccc(O)cc2)cc(=O)[nH]1", "growth [%]": 104}
{"Compound": "COc1cc(-c2cc(/C=C/C(=O)c3ccc(N)cc3)[nH]n2)cc(OC)c1OC", "growth [%]": -38.1}
{"Compound": "CSc1nn(-c2ccccc2)c2ncnc(Oc3ccc(C)cc3)c12", "growth [%]": 103}
{"Compound": "CC(C)N(CCNc1nc(C(Cl)(Cl)Cl)nc2cc(Cl)ccc12)C(C)C", "growth [%]": -30.6}
{"Compound": "CCCC1(CC(=O)O)OCCc2c1[nH]c1ccccc21 (stereo unspecified)", "growth [%]": 115}

Reported growth for `COc1cc(/C=C2\Oc3cc(OCC(=O)c4ccccc4)ccc3C2=O)cc(OC)c1OC` : what is it?
114

Reported growth for `CCC(=O)N1C/C(=C/c2ccc(Br)cc2)C(=O)/C(=C/c2ccc(Br)cc2)C1` : what is it?
-64.2

Reported growth for `O=C1/C(=C/c2ccc([N+](=O)[O-])s2)Oc2ccccc21` : what is it?
-61.3
